Tested on: NCI-H2228
Assay: relative viability (nuclei count vs DMSO), 5 days (fraction); higher = more cells survive
Conditions: first compound 8 µM
# if measured relative viability < 0.5: Yes  # else: No

>>> class_name("Nc1cccc2c1CN(C1CCC(=O)NC1=O)C2=O (configuration not stated) [Lenalidomide] + Nc1nc2[nH]cc(CCc3ccc(C(=O)N[C@@H](CCC(=O)O)C(=O)O)cc3)c2c(=O)[nH]1 [Pemetrexed] (partner 0.2 µM)")
"Yes"
>>> class_name("Nc1cccc2c1CN(C1CCC(=O)NC1=O)C2=O (configuration not stated) [Lenalidomide] + CC(=O)c1c(C)c2cnc(Nc3ccc(N4CCNCC4)cn3)nc2n(C2CCCC2)c1=O [Palbociclib] (partner 0.5 µM)")
"No"
>>> class_name("Nc1cccc2c1CN(C1CCC(=O)NC1=O)C2=O (configuration not stated) [Lenalidomide] + O=C(c1cc(Cc2n[nH]c(=O)c3ccccc23)ccc1F)N1CCN(C(=O)C2CC2)CC1 [Olaparib] (partner 8 µM)")
"No"
>>> class_name("Nc1cccc2c1CN(C1CCC(=O)NC1=O)C2=O (configuration not stated) [Lenalidomide] + N=C(N)NC(=N)NCCc1ccccc1 [Phenformin] (partner 250 µM)")
"Yes"
>>> class_name("Nc1cccc2c1CN(C1CCC(=O)NC1=O)C2=O (configuration not stated) [Lenalidomide] + CCNC(=O)c1noc(-c2cc(C(C)C)c(O)cc2O)c1-c1ccc(CN2CCOCC2)cc1 [Luminespib] (partner 0.01 µM)")
"Yes"
>>> class_name("Nc1cccc2c1CN(C1CCC(=O)NC1=O)C2=O (configuration not stated) [Lenalidomide] + C[C@]1(O)C[C@@H](c2nc(-c3ccc4ccc(-c5ccccc5)nc4c3)c3c(N)nccn32)C1 [Linsitinib] (partner 1 µM)")
"No"
>>> class_name("Nc1cccc2c1CN(C1CCC(=O)NC1=O)C2=O (configuration not stated) [Lenalidomide] + C[C@@H](Oc1cc(-c2cnn(C3CCNCC3)c2)cnc1N)c1c(Cl)ccc(F)c1Cl [Crizotinib] (partner 1 µM)")
"Yes"
